Task for the reader: assign each of the following binders its reported kon.
- TARGET_ENTITY: PD-L1 (antigen of the kinetic measurements) (human, UniProt Q9NZQ7)
- Sequence (Q9NZQ7 19-238 limits assumed): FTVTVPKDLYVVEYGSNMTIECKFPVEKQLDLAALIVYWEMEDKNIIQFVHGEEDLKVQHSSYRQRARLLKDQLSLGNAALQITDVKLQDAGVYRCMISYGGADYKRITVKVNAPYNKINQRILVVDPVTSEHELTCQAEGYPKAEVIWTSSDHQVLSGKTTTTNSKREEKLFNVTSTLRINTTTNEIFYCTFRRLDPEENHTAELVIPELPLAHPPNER
- PROCEDURE_TEXT: kinetic measurements for aPDL1 antibodies; instrument and antigen format not stated
One number for each entry, in M⁻¹ s⁻¹.

1D2 (antibody, V domains shown, anti-PD-L1 clone; also called Ab 1D2) VH: QVQLVQSGAEVKKPGSSVKVSCKASGGTFSSYAISWVRQAPGQGLEWMGGIIPIFGTANYAQKFQGRVTITADESTSTAYMELSSLRSEDTAVYYCARDGSGYDSAGMDDWGQGTLVTVSS VL: QPGLTQPPSASGTPGQTVTISCSGSRSNIGSNYVYWYQQFPGTAPKLLIFSNNQRPSGVPDRFSGSKSGTSASLAISGLRSEDEADYYCAVWDDSLSGVVFGGGTKLTVL ... 1.35e+06
1E1. (antibody, V domains shown, anti-PD-L1 clone; also called Ab 1E1) VH: QVQLVQSGVEMKKPGASVRVSCKGSGYTFSSYGISWVRQAPGQGLEWMGWISAHNGHASNAQKLEDRVTMTTDTSTNTAYMELRSLTSDDTAVYYCARVHGALYYGMDVWGQGTTVTVSS VL: SYELTQPPSVSVAPGQTARIPCGANNIGGKSVHWYQQKPGQAPVLVVYDDRDRPSGIPERFSGSNSGNTATLTISRVEAGDEADYYCQVWDSSSDHWVFGGGTKLTVL ... 984000

Attention now shifts to the item below.
Which measured kon value corresponds to 1C1 (antibody, V domains shown, anti-PD-L1 clone; also called Ab 1C1) VH: QVQLVQSGAEVKKPGASVKVSCKASGYTFTSYGISWVRQAPGQGLEWMGWTSPHNGLTAFAQILEGRVTMTTDTSTNTAYMELRNLTFDDTAVYFCAKVHPVFSYALDVWGQGTLVTVSS VL: NFMLTQPHSVSESPGKTVTISCTRSSGSIASNYVQWYQQRPGSSPTTVIYEDNQRPSGVPDRFSGSIDTSSNSASLTISGLKTKDEADYYCQSYDGITVIFGGGTKLTVL ?
802000
